# assay name: Therapeutic index expressed as ratio of IC50 for 50% toxicity to EC50 for 50% inhibition
# Format: cell-based
# test context: human, H9 cells; read-out: TI
quantity: selectivity ratio
// keep it numeric: no unit symbol after the value

Here are 3 molecules together with their reported answers.
CC(C)[C@@H]1CC[C@]2(CO)CC[C@]3(C)[C@H](CC[C@@H]4[C@@]5(C)CC[C@H](OC(=O)CC(C)(C)C(=O)O)C(C)(C)[C@@H]5CC[C@]43C)[C@@H]12	16200
C=C(C)[C@@H]1CC[C@]2(COC(=O)C(C)(C)CC(=O)O)CC[C@]3(C)[C@H](CC[C@@H]4[C@@]5(C)CC[C@H](OC(=O)CC(C)(C)C(=O)O)C(C)(C)[C@@H]5CC[C@]43C)[C@@H]12	42400
C=C(C)[C@@H]1CC[C@]2(CO)CC[C@]3(C)[C@H](CC[C@@H]4[C@@]5(C)CC[C@H](OC(=O)CC(C)(C)C(=O)O)C(C)(C)[C@@H]5CC[C@]43C)[C@@H]12	5970

Look up selectivity ratio for this molecule: C=C(C)[C@@H]1CC[C@]2(CO)CC[C@]3(C)[C@H](CC[C@@H]4[C@@]5(C)CC[C@H](OC(=O)CCCC(=O)O)C(C)(C)[C@@H]5CC[C@]43C)[C@@H]12 670

Would you kindly repeat that for CC(C)[C@@H]1CC[C@]2(CO)CC[C@]3(C)[C@H](CC[C@@H]4[C@@]5(C)CC[C@H](OC(=O)CC(C)(C)CC(=O)O)C(C)(C)[C@@H]5CC[C@]43C)[C@@H]12 ? 19500

====

# System: Human immunodeficiency virus 1
# assay name: Concentration required to inhibit 50% of HIV-1 (human immunodeficiency virus-1) replication
# Format: functional, organism-based
Form field: pEC50 (one value per entry).
pEC50 here is simply -log10 of the concentration when that concentration is written in mol/L.

For the compound C=C(C)[C@@H]1CC[C@]2(CO)CC[C@]3(C)[C@H](CC[C@@H]4[C@@]5(C)CC[C@H](OC(=O)COCC(=O)O)C(C)(C)[C@@H]5CC[C@]43C)[C@@H]12 , what pEC50 is on record? 7.70

And for Cc1cn([C@H]2C[C@H](N=[N+]=[N-])[C@@H](CO)O2)c(=O)[nH]c1=O ? 8.21

Request: C=C(C)[C@@H]1CC[C@]2(CO)CC[C@]3(C)[C@H](CC[C@@H]4[C@@]5(C)CC[C@H](OC(=O)CC(C)(C)CC(=O)O)C(C)(C)[C@@H]5CC[C@]43C)[C@@H]12 8.36

====

# Test system: Human immunodeficiency virus 1
# assay name: Concentration required to inhibit 50% of HIV-1 (human immunodeficiency virus-1) replication
# Assay type: functional, organism-based
quantity: pEC50
Keep it numeric: pEC50 is minus log10 of the concentration in mol/L.

CC(C)[C@@H]1CC[C@]2(CO)CC[C@]3(C)[C@H](CC[C@@H]4[C@@]5(C)CC[C@H](OC(=O)CC(C)(C)CC(=O)O)C(C)(C)[C@@H]5CC[C@]43C)[C@@H]12	8.89

Returns the measured pEC50 for the input molecule. Input: C=C(C)[C@@H]1CC[C@]2(CO)CC[C@]3(C)[C@H](CC[C@@H]4[C@@]5(C)CC[C@H](OC(=O)CCCC(=O)O)C(C)(C)[C@@H]5CC[C@]43C)[C@@H]12 7.22

Again, but for C=C(C)[C@@H]1CC[C@]2(CO)CC[C@]3(C)[C@H](CC[C@@H]4[C@@]5(C)CC[C@H](OC(=O)CC(C)(C)C(=O)O)C(C)(C)[C@@H]5CC[C@]43C)[C@@H]12 8.25

Same lookup for CC(C)[C@@H]1CC[C@]2(CO)CC[C@]3(C)[C@H](CC[C@@H]4[C@@]5(C)CC[C@H](OC(=O)CCCC(=O)O)C(C)(C)[C@@H]5CC[C@]43C)[C@@H]12 , please. 10.70

====

# assay name: Therapeutic index expressed as ratio of IC50 for 50% toxicity to EC50 for 50% inhibition
# Type: cell-based
# test context: human, H9 cells; read-out: TI
Below, each entry is listed with its recorded selectivity ratio.
Form: value (number only, do not type unit).

CC(C)[C@@H]1CC[C@]2(CO)CC[C@]3(C)[C@H](CC[C@@H]4[C@@]5(C)CC[C@H](OC(=O)CCCC(=O)O)C(C)(C)[C@@H]5CC[C@]43C)[C@@H]12	1.12e+06
C=C(C)[C@@H]1CC[C@]2(CO)CC[C@]3(C)[C@H](CC[C@@H]4[C@@]5(C)CC[C@H](OC(=O)CC(C)(C)CC(=O)O)C(C)(C)[C@@H]5CC[C@]43C)[C@@H]12	6570
C=C(C)[C@@H]1CC[C@]2(COC(=O)CC(C)(C)CC(=O)O)CC[C@]3(C)[C@H](CC[C@@H]4[C@@]5(C)CC[C@H](OC(=O)CC(C)(C)CC(=O)O)C(C)(C)[C@@H]5CC[C@]43C)[C@@H]12	21500

# input for lookup
Any idea what its selectivity ratio is? The molecule is C=C(C)[C@@H]1CC[C@]2(C(=O)O)CC[C@]3(C)[C@H](CC[C@@H]4[C@@]5(C)CC[C@H](O)C(C)(C)[C@@H]5CC[C@]43C)[C@@H]12 9.2
